system: RAW264.7; test: Anti-inflammatory activity in mouse RAW264.7 cells assessed as inhibition of LPS-induced NO production at 100 uM relative to control; assay type: functional
outcome measure: inhibition at 100 µM

| smiles structure | system tested | result |
| --- | --- | --- |
| C=C[C@@]1(C)C=C2CC[C@@H]3C(C)(C)C[C@@H](O)C[C@@]3(C)[C@@H]2CC1 | RAW264.7 | 81.8% |
| C=C[C@]1(C)C=C2[C@H](OC(C)=O)[C@@H](O)[C@H]3C(C)(C)CCC[C@]3(C)[C@H]2CC1 | RAW264.7 | 82.1% |
| C=C[C@]1(C)C=C2C[C@@H](OC(C)=O)[C@H]3C(C)(C)CCC[C@]3(C)[C@@]2(O)CC1 | RAW264.7 | -3.85% |
| C=C[C@]1(C)C=C2[C@@H](O)C[C@H]3C(C)(C)CCC[C@]3(C)[C@@]2(O)CC1 | RAW264.7 | -5.96% |
| C=C[C@]1(C)C=C2C[C@@H](O)[C@H]3C(C)(C)CC[C@H](O)[C@]3(C)[C@H]2CC1 | RAW264.7 | 26.3% |
| C=C[C@]1(C)C=C2[C@@H](OC(C)=O)[C@@H](O)[C@H]3C(C)(C)CCC[C@]3(C)[C@@]2(O)CC1 | RAW264.7 | 47.5% |
| C=C[C@]1(C)C=C2CC[C@H]3C(C)(C)C[C@H](O)[C@H](O)[C@]3(C)[C@H]2[C@H](O)C1 | RAW264.7 | 22.4% |
| C=C[C@]1(C)C=C2C[C@@H](O)[C@H]3C(C)(C)CC[C@H](OC(C)=O)[C@]3(C)[C@H]2CC1 | RAW264.7 | 81.8% |

---

test: Cytotoxicity against mouse RAW264.7 cells assessed as cell survival at 100 uM; assay type: cell-based; settings: read-out: Activity

| smiles structure | units text | viability at 100 µM |
| --- | --- | --- |
| C=C[C@]1(C)C=C2C[C@@H](O)[C@H]3C(C)(C)CCC[C@]3(C)[C@H]2CC1 | % | 66.8 |
| C=C[C@]1(C)C=C2C[C@@H](O)[C@H]3C(C)(C)CC[C@H](O)[C@]3(C)[C@H]2CC1 | % | 67 |
| C=C[C@]1(C)C=C2CC[C@H]3C(C)(C)C[C@H](O)[C@H](O)[C@]3(C)[C@H]2CC1 | % | 73.5 |
| C=C[C@]1(C)C=C2C(=O)C[C@H]3C(C)(C)CCC[C@]3(C)[C@@]2(O)CC1 | % | 45.8 |

---

# maps each entry to its inhibition at 5 µM
system: RAW264.7; test: Anti-inflammatory activity in mouse RAW264.7 cells assessed as inhibition of LPS-induced NO production at 5 uM relative to control; assay type: functional

| smiles structure | system tested | inhibition at 5 µM (%) |
| --- | --- | --- |
| C=C[C@]1(C)C=C2[C@H](OC(C)=O)[C@@H](O)[C@H]3C(C)(C)CCC[C@]3(C)[C@H]2CC1 | RAW264.7 | -0.32 |
| C=C[C@]1(C)C=C2[C@@H](O)[C@@H](O)[C@H]3C(C)(C)CCC[C@]3(C)[C@@]2(O)CC1 | RAW264.7 | 5.03 |
| C=C[C@]1(C)C=C2C[C@@H](O)[C@H]3C(C)(C)CC[C@H](OC(C)=O)[C@]3(C)[C@H]2CC1 | RAW264.7 | 15.2 |
| C=C[C@]1(C)C=C2CC[C@H]3C(C)(C)[C@H](O)C[C@H](O)[C@]3(C)[C@H]2CC1 | RAW264.7 | 5.57 |
| C=C[C@]1(C)C=C2CC[C@H]3C(C)(C)C[C@H](O)[C@H](O)[C@]3(C)[C@@]2(O)CC1 | RAW264.7 | 18.1 |

---

assay: Cytotoxicity against mouse RAW264.7 cells assessed as cell survival at 5 uM; format: cell-based; conditions: read-out: Activity
# maps each entry to its viability at 5 µM
outcome measure: viability at 5 µM (%)

| compound | outcome measure | numeric result |
| --- | --- | --- |
| C=C[C@]1(C)C=C2C[C@@H](O)[C@H]3C(C)(C)CC[C@H](O)[C@]3(C)[C@H]2CC1 | viability at 5 µM | 72.9 |
| C=C[C@]1(C)C=C2CC[C@H]3C(C)(C)C[C@H](O)[C@H](O)[C@]3(C)[C@H]2[C@H](O)C1 | viability at 5 µM | 65.7 |
| C=C[C@]1(C)C=C2[C@@H](O)[C@@H](O)[C@H]3C(C)(C)CCC[C@]3(C)[C@@]2(O)CC1 | viability at 5 µM | 140 |
| C=C[C@]1(C)C=C2C(=O)C[C@H]3C(C)(C)CC[C@H](O)[C@]3(C)[C@H]2CC1 | viability at 5 µM | 86.6 |
| C=C[C@]1(C)C=C2CC[C@H]3C(C)(C)CC[C@H](O)[C@]3(C)[C@H]2CC1 | viability at 5 µM | 57.7 |
| C=C[C@]1(C)C=C2CC[C@H]3C(C)(C)CC[C@H](O)[C@]3(C)[C@H]2[C@H](O)C1 | viability at 5 µM | 78.4 |
| C=C[C@]1(C)C=C2C[C@@H](O)[C@H]3C(C)(C)CC[C@H](OC(C)=O)[C@]3(C)[C@H]2CC1 | viability at 5 µM | 106 |
| C=C[C@]1(C)C=C2C[C@@H](OC(C)=O)[C@H]3C(C)(C)CCC[C@]3(C)[C@@]2(O)CC1 | viability at 5 µM | 76.9 |
| C=C[C@]1(C)C=C2CC[C@H]3C(C)(C)C[C@H](O)[C@H](O)[C@]3(C)[C@H]2CC1 | viability at 5 µM | 113 |
| C=C[C@]1(C)C=C2C[C@@H](O)[C@H]3C(C)(C)CCC[C@]3(C)[C@H]2CC1 | viability at 5 µM | 98.7 |
| C=C[C@@]1(C)C=C2CC[C@@H]3C(C)(C)C[C@@H](O)C[C@@]3(C)[C@@H]2CC1 | viability at 5 µM | 97.5 |
| C=C[C@]1(C)C=C2[C@@H](O)C[C@H]3C(C)(C)CCC[C@]3(C)[C@@]2(O)CC1 | viability at 5 µM | 114 |
| C=C[C@]1(C)C=C2[C@@H](OC(C)=O)[C@@H](O)[C@H]3C(C)(C)CCC[C@]3(C)[C@@]2(O)CC1 | viability at 5 µM | 89.3 |
| C=C[C@]1(C)C=C2C(=O)C[C@H]3C(C)(C)CCC[C@]3(C)[C@@]2(O)CC1 | viability at 5 µM | 93.3 |
| C=C[C@]1(C)C=C2[C@H](O)C[C@H]3C(C)(C)CCC[C@]3(C)[C@H]2CC1 | viability at 5 µM | 76.9 |
| C=C[C@]1(C)C=C2C[C@@H](O)[C@H]3C(C)(C)CCC[C@]3(C)[C@@]2(OC)CC1 | viability at 5 µM | 121 |
| CNC(=N)NCCC[C@H](N)C(=O)O [TILARGININE ACETATE] | viability at 5 µM | 112 |
| C=C[C@]1(C)C=C2CC[C@H]3C(C)(C)C[C@H](O)[C@H](O)[C@]3(C)[C@@]2(O)CC1 | viability at 5 µM | 85.7 |

---

system: RAW264.7; test: Anti-inflammatory activity in mouse RAW264.7 cells assessed as inhibition of LPS-induced NO production at 10 uM relative to control; type: functional
# maps each entry to its inhibition at 10 µM

| smiles structure | system tested | inhibition at 10 µM / % |
| --- | --- | --- |
| C=C[C@]1(C)C=C2CC[C@H]3C(C)(C)C[C@H](O)[C@H](O)[C@]3(C)[C@H]2CC1 | RAW264.7 | 9.37 |
| C=C[C@]1(C)C=C2C[C@@H](O)[C@H]3C(C)(C)CC[C@H](O)[C@]3(C)[C@H]2CC1 | RAW264.7 | 17.7 |
| C=C[C@]1(C)C=C2CC[C@H]3C(C)(C)C[C@H](O)[C@H](O)[C@]3(C)[C@H]2[C@H](O)C1 | RAW264.7 | 11.1 |
| C=C[C@]1(C)C=C2[C@@H](OC(C)=O)[C@@H](O)[C@H]3C(C)(C)CCC[C@]3(C)[C@@]2(O)CC1 | RAW264.7 | 16.7 |
| C=C[C@]1(C)C=C2[C@@H](O)[C@@H](O)[C@H]3C(C)(C)CCC[C@]3(C)[C@@]2(O)CC1 | RAW264.7 | 16.9 |
| C=C[C@]1(C)C=C2[C@H](OC(C)=O)C[C@H]3C(C)(C)CCC[C@]3(C)[C@@]2(O)CC1 | RAW264.7 | 14.9 |
| C=C[C@]1(C)C=C2C[C@@H](O)[C@H]3C(C)(C)CCC[C@]3(C)[C@@]2(OC)CC1 | RAW264.7 | 10.8 |
| C=C[C@]1(C)C=C2[C@H](OC(C)=O)[C@@H](O)[C@H]3C(C)(C)CCC[C@]3(C)[C@H]2CC1 | RAW264.7 | 9.88 |

Where these numbers come from: ChEMBL document CHEMBL4602643
